Tested on: MCF10A
test.protocol: 5+ nucleoli phenotype percent effect (relative to siNT 0% and siKIF11 100%); higher = more cells with five or more nucleoli
run.conditions: 20 nM; 72 h
Parameter threshold = 20%. Response is 1 when 5+ nucleoli phenotype percent effect meets or exceeds it, else 0.

Query string: Textbook exercise: given the entry CCCAUCACCUUUCCGUCUCCCCU [hsa-miR-6884-3p] , state whether its 5+ nucleoli phenotype percent effect is greater than or equal to 20%.
Result string: 1

Query string: Textbook exercise: given the entry AUGAGACUCAUGUAAAACAUCUU [hsa-miR-3672] , state whether its 5+ nucleoli phenotype percent effect is greater than or equal to 20%.
Result string: 0

Query string: Textbook exercise: given the entry UUGUGGCUGGUCAUGAGGCUAA [hsa-miR-4474-3p] , state whether its 5+ nucleoli phenotype percent effect is greater than or equal to 20%.
Result string: 1

Query string: Textbook exercise: given the entry CAUGCUGACCUCCCUCCUGCCCCAG [hsa-miR-4728-3p] , state whether its 5+ nucleoli phenotype percent effect is greater than or equal to 20%.
Result string: 1

Query string: Textbook exercise: given the entry GUUCCUGCUGAACUGAGCCAG [hsa-miR-3074-5p] , state whether its 5+ nucleoli phenotype percent effect is greater than or equal to 20%.
Result string: 0

Query string: Textbook exercise: given the entry CCACUGCCUAUGCCCCACAG [hsa-miR-6890-3p] , state whether its 5+ nucleoli phenotype percent effect is greater than or equal to 20%.
Result string: 0

Query string: Textbook exercise: given the entry CGUGUCUUCUGGCUUGAU [hsa-miR-4711-3p] , state whether its 5+ nucleoli phenotype percent effect is greater than or equal to 20%.
Result string: 0

Query string: Textbook exercise: given the entry CCUCACCCAGCUCUCUGGCCCUCU [hsa-miR-6862-3p] , state whether its 5+ nucleoli phenotype percent effect is greater than or equal to 20%.
Result string: 0

Query string: Textbook exercise: given the entry CACAGGACUGACUCCUCACCCCAGUG [hsa-miR-4700-3p] , state whether its 5+ nucleoli phenotype percent effect is greater than or equal to 20%.
Result string: 1

Query string: Textbook exercise: given the entry UUCUCCCACUACCAGGCUCCCA [hsa-miR-4713-5p] , state whether its 5+ nucleoli phenotype percent effect is greater than or equal to 20%.
Result string: 1

Query string: Textbook exercise: given the entry UACCACAGGGUAGAACCACGG [hsa-miR-140-3p] , state whether its 5+ nucleoli phenotype percent effect is greater than or equal to 20%.
Result string: 1

Query string: Textbook exercise: given the entry AGGAGGGAGGAGAUGGGCCAAGUU [hsa-miR-1249-5p] , state whether its 5+ nucleoli phenotype percent effect is greater than or equal to 20%.
Result string: 0

Query string: Textbook exercise: given the entry CAGGAGUGGGGGGUGGGACGU [hsa-miR-4433b-3p] , state whether its 5+ nucleoli phenotype percent effect is greater than or equal to 20%.
Result string: 0

Query string: Textbook exercise: given the entry GAGCAAUGUAGGUAGACUGUUU [hsa-miR-3908] , state whether its 5+ nucleoli phenotype percent effect is greater than or equal to 20%.
Result string: 0

Query string: Textbook exercise: given the entry UUGUGGAUCUCAAGGAUGUGCU [hsa-miR-4752] , state whether its 5+ nucleoli phenotype percent effect is greater than or equal to 20%.
Result string: 0

Query string: Textbook exercise: given the entry AACGCACUUCCCUUUAGAGUGU [hsa-miR-521] , state whether its 5+ nucleoli phenotype percent effect is greater than or equal to 20%.
Result string: 1

Query string: Textbook exercise: given the entry UCAAAAUCAGGAGUCGGGGCUU [hsa-miR-8063] , state whether its 5+ nucleoli phenotype percent effect is greater than or equal to 20%.
Result string: 0

Query string: Textbook exercise: given the entry AAUUCUGUAAAGGAAGAAGAGG [hsa-miR-4778-5p] , state whether its 5+ nucleoli phenotype percent effect is greater than or equal to 20%.
Result string: 1

Query string: Textbook exercise: given the entry AAAGGUAAUUGCAGUUUUUCCC [hsa-miR-548ai] , state whether its 5+ nucleoli phenotype percent effect is greater than or equal to 20%.
Result string: 0
